- system.name: SARS-CoV-2 3CLpro (Severe acute respiratory syndrome coronavirus 2, UniProt P0DTD1)
- experimental.protocol: FRET based protease assay, SARS-CoV-2 3CL
pIC50: −log10 of the molar value.
Please respond with reported pIC50 for every item in the list.

Quick check: pIC50 of "CC1(C)[C@@H]2[C@H]3C(=O)N[C@H](C#N)C[C@@H]4C(=O)NCC[C@@H]4CCCC[C@H](NC(=O)c4ccc(F)cc4F)C(=O)N3C[C@@H]21" ?
> 7.00

Suppose we examine the molecule "CC(C)(C)OC(=O)N[C@H]1CCCC[C@H]2CNC(=O)[C@H]2C[C@@H](C#N)NC(=O)[C@@H]2[C@@H]3[C@H](CN2C1=O)C3(C)C" ; what pIC50 value has been reported?
> 7.00

Form field: reported pIC50 of "CC1(C)[C@@H]2[C@H]3C(=O)N[C@H](C#N)C[C@@H]4C(=O)NC[C@@H]4CCCC[C@H](NC(=O)C4CC(F)(F)C4)C(=O)N3C[C@@H]21"
> 7.00

----------
- system.name: SARS-CoV-2 3CLpro (Severe acute respiratory syndrome coronavirus 2, UniProt P0DTD1)
- experimental.protocol: FRET based protease assay, SARS-CoV-2 3CL
pIC50: −log10 of the molar value.
Kindly supply the reported pIC50 values for the records listed here.

Missing value: pIC50, SARS-CoV-2 3CLpro (Severe acute respiratory syndrome coronavirus 2, UniProt P0DTD1), entry "CC(C)C[C@@H]1NC(=O)CCCCC[C@@H]2CNC(=O)[C@H]2C[C@@H](C=O)NC1=O" . Fill in?
< 4.70

What value of pIC50 on SARS-CoV-2 3CLpro (Severe acute respiratory syndrome coronavirus 2, UniProt P0DTD1) does "CC(C)(C)C(=O)N[C@H]1CCCC[C@H]2CCNC(=O)[C@H]2C[C@@H](C#N)NC(=O)[C@@H]2[C@@H]3[C@H](CN2C1=O)C3(C)C" have?
> 7.00

Lab note: need pIC50 with SARS-CoV-2 3CLpro (Severe acute respiratory syndrome coronavirus 2, UniProt P0DTD1) for entry "CC(C)(C)C[C@@H]1NC(=O)[C@@H](NC(=O)c2ccc(F)c(C(F)(F)F)c2)CCCC[C@H]2CNC(=O)[C@H]2C[C@@H](C#N)NC1=O" , please look it up.
6.00 to 7.00

# value lookup — system SARS-CoV-2 3CLpro (Severe acute respiratory syndrome coronavirus 2, UniProt P0DTD1), readout pIC50, item "CC(C)(C)OC(=O)N[C@H]1CCC[C@H]2CCNC(=O)[C@H]2C[C@@H](C#N)NC(=O)[C@@H]2[C@H]3CCC[C@H]3CN2C1=O"
4.70 to 6.00

# query: pIC50 | item "N#C[C@@H]1C[C@H]2C(=O)NC[C@@H]2CCCCC(=O)N2C[C@@H]3CCC[C@@H]3[C@H]2C(=O)N1" | system: SARS-CoV-2 3CLpro (Severe acute respiratory syndrome coronavirus 2, UniProt P0DTD1)
< 4.70

Query pIC50 on SARS-CoV-2 3CLpro (Severe acute respiratory syndrome coronavirus 2, UniProt P0DTD1) for "CC1(C)[C@@H]2[C@H]3C(=O)N[C@H](C#N)C[C@@H]4C(=O)NC[C@@H]4/C=C/CC[C@H](NC(=O)C4CC(F)(F)C4)C(=O)N3C[C@@H]21"
> 7.00
